Reference source for all entries: ChEMBL document CHEMBL4033618

# measurement-notes: Acute toxicity in iv dosed mouse at pH 6.6 administered for 4 days
# Type: organism-based
# assay-conditions: in vivo
measured-property: LD50 at 96 h (mg/kg)

>>> value_measured("NC[C@H]1O[C@H](O[C@H]2[C@H](O)[C@@H](O[C@H]3O[C@H](CO)[C@@H](O)[C@H](N)[C@H]3O)[C@H](N)C[C@@H]2N)[C@H](O)[C@@H](O)[C@@H]1O")
280
>>> value_measured("NC[C@@H]1O[C@H](O[C@H]2[C@@H](O)[C@H](O[C@@H]3[C@@H](O)[C@H](N)C[C@H](N)[C@H]3O[C@H]3O[C@H](CN)[C@@H](O)[C@H](O)[C@H]3N)O[C@@H]2CO)[C@H](N)[C@@H](O)[C@@H]1O")
24
>>> value_measured("NCC[C@H](O)C(=O)N[C@@H]1C[C@H](N)[C@@H](O[C@H]2O[C@H](CN)[C@@H](O)[C@H](O)[C@H]2O)[C@H](O)[C@H]1O[C@H]1O[C@H](CO)[C@@H](O)[C@H](N)[C@H]1O")
300
